Test system: Rh18 complex spheroid viability, percent test/control
Measurement protocol: Anticancer human tumor Rh18 cell line growth inhibition [Asc];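 also: spheroids exposed to compound for 7 days; 100% = DMSO vehicle control wells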
Condition description: second compound 0.1 µM; first compound 3.16 µM; hits give low values
Listed here are molecules together with their documented viability, T/C.

Molecule	viability, T/C
C#Cc1c(F)ccc2cc(O)cc(-c3ncc4c(N5CC6CCC(C5)N6)nc(OCC56CCCN5CC(F)C6)nc4c3F)c12 (configuration not stated) + Cc1c(S(C)(=O)=O)c(-c2cc(F)cc(N3CCN(c4ccc(NS(=O)(=O)c5ccc(NC(CCN6CCC(C(=O)OCCCP(=O)(O)O)CC6)CSc6ccccc6)c(S(=O)(=O)C(F)(F)F)c5)cc4)CC3)c2)c(-c2ccc(Cl)cc2)n1C(C)C	15.7%

Would you kindly look at the next entry?
[ask] Record request: viability, T/C value, item O=C(c1cc(Cc2n[nH]c(=O)c3ccccc23)ccc1F)N1CCN(C(=O)C2CC2)CC1 + Cc1c(S(C)(=O)=O)c(-c2cc(F)cc(N3CCN(c4ccc(NS(=O)(=O)c5ccc(NC(CCN6CCC(C(=O)OCCCP(=O)(O)O)CC6)CSc6ccccc6)c(S(=O)(=O)C(F)(F)F)c5)cc4)CC3)c2)c(-c2ccc(Cl)cc2)n1C(C)C
[reply] 18.5%

====

Form field: viability, T/C (one value per entry).
System: Rh18 complex spheroid viability, percent test/control
Measurement protocol: Anticancer human tumor Rh18 cell line growth inhibition [Asc];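 also: spheroids exposed to compound for 7 days; 100% = DMSO vehicle control wells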
Condition description: second compound 1 µM; first compound 0.03 µM; hits give low values
Return type: number; implicit unit %.

Recorded viability, T/C, per entry:
Compound	Measured target	viability, T/C, %
NC(=O)C(=Cn1cnc(-c2cc(C(F)(F)F)cc(C(F)(F)F)c2)n1)c1cncnc1 + Cc1c(S(C)(=O)=O)c(-c2cc(F)cc(N3CCN(c4ccc(NS(=O)(=O)c5ccc(NC(CCN6CCC(C(=O)OCCCP(=O)(O)O)CC6)CSc6ccccc6)c(S(=O)(=O)C(F)(F)F)c5)cc4)CC3)c2)c(-c2ccc(Cl)cc2)n1C(C)C	Rh18 complex spheroid viability, percent test/control	7.48
Cc1nc(N2CCC3(CC2)COC(C)C3N)c(CO)nc1Sc1ccnc(N)c1Cl (stereo not drawn) + CNC(C)C(=O)NC1CN(S(=O)(=O)c2cccc(S(=O)(=O)N3CCC4CCC(C(=O)NC(c5ccccc5)c5ccccc5)N4C(=O)C(NC(=O)C(C)NC)C3)c2)CCC2CCC(C(=O)NC(c3ccccc3)c3ccccc3)N2C1=O	Rh18 complex spheroid viability, percent test/control	30

Now turn to the next compound.
[ask] Form field: reported viability, T/C of Cc1nc(N2CCC3(CC2)COC(C)C3N)c(CO)nc1Sc1ccnc(N)c1Cl (stereo not drawn) + Cc1c(S(C)(=O)=O)c(-c2cc(F)cc(N3CCN(c4ccc(NS(=O)(=O)c5ccc(NC(CCN6CCC(C(=O)OCCCP(=O)(O)O)CC6)CSc6ccccc6)c(S(=O)(=O)C(F)(F)F)c5)cc4)CC3)c2)c(-c2ccc(Cl)cc2)n1C(C)C
[reply] 7.01

====

Each entry below carries its recorded viability, T/C.
Tested on: Rh18 complex spheroid viability, percent test/control
Measurement protocol: Anticancer human tumor Rh18 cell line growth inhibition [Asc];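 also: spheroids exposed to compound for 7 days; 100% = DMSO vehicle control wells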
Condition description: second compound 0.316 µM; first compound 0.1 µM; hits give low values
Form entry: value (%) — number only.

[ask] // lookup viability, T/C for C#Cc1c(F)ccc2cc(O)cc(-c3ncc4c(N5CC6CCC(C5)N6)nc(OCC56CCCN5CC(F)C6)nc4c3F)c12 (stereo not drawn) + CNC(C)C(=O)NC1CN(S(=O)(=O)c2cccc(S(=O)(=O)N3CCC4CCC(C(=O)NC(c5ccccc5)c5ccccc5)N4C(=O)C(NC(=O)C(C)NC)C3)c2)CCC2CCC(C(=O)NC(c3ccccc3)c3ccccc3)N2C1=O
[reply] 69

[ask] viability, T/C for NC1CCC(NC2CC2c2ccccc2)CC1 (stereo not drawn) + Cc1c(S(C)(=O)=O)c(-c2cc(F)cc(N3CCN(c4ccc(NS(=O)(=O)c5ccc(NC(CCN6CCC(C(=O)OCCCP(=O)(O)O)CC6)CSc6ccccc6)c(S(=O)(=O)C(F)(F)F)c5)cc4)CC3)c2)c(-c2ccc(Cl)cc2)n1C(C)C ?
[reply] 8.22

[ask] I have this compound here, O=C(c1ccc(F)c(F)c1Nc1ccc(I)cc1F)N1CC(O)([C@@H]2CCCCN2)C1 + Cc1c(S(C)(=O)=O)c(-c2cc(F)cc(N3CCN(c4ccc(NS(=O)(=O)c5ccc(NC(CCN6CCC(C(=O)OCCCP(=O)(O)O)CC6)CSc6ccccc6)c(S(=O)(=O)C(F)(F)F)c5)cc4)CC3)c2)c(-c2ccc(Cl)cc2)n1C(C)C , and I need its recorded viability, T/C.
[reply] 8.03

====

System: Rh18 complex spheroid viability, percent test/control
Measurement protocol: Anticancer human tumor Rh18 cell line growth inhibition [Asc]; active means viability on the fitted dose curve at most 10% of control; inactive means the rest;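 also: spheroids exposed to compound for 7 days; 100% = DMSO vehicle control wells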
Condition description: second compound 3 µM; first compound 3.16 µM
Use one of these outcomes when replying: active, inactive

Compound	Discrete label
C=C(F)C(=O)N1CCN(c2nc(OCC3CCCN3C)nc3c2CCN(c2cccc4cccc(Cl)c24)C3)CC1CC#N (centres undefined) + CCN1C(C(=O)NC23CCC(C(=O)O)(CC2)CC3)C(c2cccc(Cl)c2F)C2(C(=O)Nc3cc(Cl)ccc32)C12CCCCC2	active
C=CC(=O)N1CCN(c2nc(=O)n(-c3c(C)ccnc3C(C)C)c3nc(-c4c(O)cccc4F)c(F)cc23)C(C)C1 (centres undefined) + CCN1C(C(=O)NC23CCC(C(=O)O)(CC2)CC3)C(c2cccc(Cl)c2F)C2(C(=O)Nc3cc(Cl)ccc32)C12CCCCC2	inactive
O=C(c1cc(Cc2n[nH]c(=O)c3ccccc23)ccc1F)N1CCN(C(=O)C2CC2)CC1 + CCN1C(C(=O)NC23CCC(C(=O)O)(CC2)CC3)C(c2cccc(Cl)c2F)C2(C(=O)Nc3cc(Cl)ccc32)C12CCCCC2	active

[ask] # fetch the recorded call for C#Cc1c(F)ccc2cc(O)cc(-c3ncc4c(N5CC6CCC(C5)N6)nc(OCC56CCCN5CC(F)C6)nc4c3F)c12 (centres undefined) + CCN1C(C(=O)NC23CCC(C(=O)O)(CC2)CC3)C(c2cccc(Cl)c2F)C2(C(=O)Nc3cc(Cl)ccc32)C12CCCCC2 here
[reply] inactive

====

Tested on: Rh18 complex spheroid viability, percent test/control
Measurement protocol: Anticancer human tumor Rh18 cell line growth inhibition [Asc];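 also: spheroids exposed to compound for 7 days; 100% = DMSO vehicle control wells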
Condition description: second compound 0.03 µM; first compound 0.01 µM; hits give low values
In plain terms, low viability, T/C, meaning strictly below 30%, gives fulfilled, and everything else gives not fulfilled.

Example cases with answers are listed next.
Compound	Measured target	Discrete label
O=C(c1ccc(F)c(F)c1Nc1ccc(I)cc1F)N1CC(O)([C@@H]2CCCCN2)C1 + CCN1C(C(=O)NC23CCC(C(=O)O)(CC2)CC3)C(c2cccc(Cl)c2F)C2(C(=O)Nc3cc(Cl)ccc32)C12CCCCC2	Rh18 complex spheroid viability, percent test/control	not fulfilled
CCN1CCN(Cc2ccc(Nc3ncc(F)c(-c4cc(F)c5nc(C)n(C(C)C)c5c4)n3)nc2)CC1 + CCN1C(C(=O)NC23CCC(C(=O)O)(CC2)CC3)C(c2cccc(Cl)c2F)C2(C(=O)Nc3cc(Cl)ccc32)C12CCCCC2	Rh18 complex spheroid viability, percent test/control	not fulfilled
COc1c(OCCCN2CCOCC2)ccc2c3n(c(=NC(=O)c4cnc(N)nc4)nc12)CCN3 + CCN1C(C(=O)NC23CCC(C(=O)O)(CC2)CC3)C(c2cccc(Cl)c2F)C2(C(=O)Nc3cc(Cl)ccc32)C12CCCCC2	Rh18 complex spheroid viability, percent test/control	fulfilled
Cn1ncnc1[C@H]1c2n[nH]c(=O)c3cc(F)cc(c23)N[C@@H]1c1ccc(F)cc1 + CCN1C(C(=O)NC23CCC(C(=O)O)(CC2)CC3)C(c2cccc(Cl)c2F)C2(C(=O)Nc3cc(Cl)ccc32)C12CCCCC2	Rh18 complex spheroid viability, percent test/control	not fulfilled

Read the next record carefully.
[ask] Is the reported viability, T/C for CNC(C)C(=O)NC1CN(S(=O)(=O)c2cccc(S(=O)(=O)N3CCC4CCC(C(=O)NC(c5ccccc5)c5ccccc5)N4C(=O)C(NC(=O)C(C)NC)C3)c2)CCC2CCC(C(=O)NC(c3ccccc3)c3ccccc3)N2C1=O (stereo unspecified) + CCN1C(C(=O)NC23CCC(C(=O)O)(CC2)CC3)C(c2cccc(Cl)c2F)C2(C(=O)Nc3cc(Cl)ccc32)C12CCCCC2 strictly below 30%?
[reply] fulfilled

====

Tested on: Rh18 complex spheroid viability, percent test/control
Measurement protocol: Anticancer human tumor Rh18 cell line growth inhibition [Asc]; active means viability on the fitted dose curve at most 10% of control; inactive means the rest;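 also: spheroids exposed to compound for 7 days; 100% = DMSO vehicle control wells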
Condition description: second compound 0.1 µM; first compound 0.3 µM
Hello, when you answer, please use one of the following outcomes: t (active), f (inactive)

Compound	Measured target	Discrete label
Cc1nc(N2CCC3(CC2)COC(C)C3N)c(CO)nc1Sc1ccnc(N)c1Cl (stereo not drawn) + CNC(C)C(=O)NC1CN(S(=O)(=O)c2cccc(S(=O)(=O)N3CCC4CCC(C(=O)NC(c5ccccc5)c5ccccc5)N4C(=O)C(NC(=O)C(C)NC)C3)c2)CCC2CCC(C(=O)NC(c3ccccc3)c3ccccc3)N2C1=O	Rh18 complex spheroid viability, percent test/control	f
NC(=O)C(=Cn1cnc(-c2cc(C(F)(F)F)cc(C(F)(F)F)c2)n1)c1cncnc1 + Cc1c(S(C)(=O)=O)c(-c2cc(F)cc(N3CCN(c4ccc(NS(=O)(=O)c5ccc(NC(CCN6CCC(C(=O)OCCCP(=O)(O)O)CC6)CSc6ccccc6)c(S(=O)(=O)C(F)(F)F)c5)cc4)CC3)c2)c(-c2ccc(Cl)cc2)n1C(C)C	Rh18 complex spheroid viability, percent test/control	t

--- query ---
[ask] Hi team, can someone confirm the assay call for Cc1nc(N2CCC3(CC2)COC(C)C3N)c(CO)nc1Sc1ccnc(N)c1Cl (stereo not drawn) + Cc1c(S(C)(=O)=O)c(-c2cc(F)cc(N3CCN(c4ccc(NS(=O)(=O)c5ccc(NC(CCN6CCC(C(=O)OCCCP(=O)(O)O)CC6)CSc6ccccc6)c(S(=O)(=O)C(F)(F)F)c5)cc4)CC3)c2)c(-c2ccc(Cl)cc2)n1C(C)C ?
[reply] t
